The measurements presented in this section are drawn from patent EP0039857A1.

measurement.target: Lipase aus Rhizopus arrhizus (Triacylglyceroacylhydrolase EC 3.1.1.3) (Rhizopus oryzae, UniProt P61872)
Construct: Lipase aus Rhizopus arrhizus (Triacylglyceroacylhydrolase EC 3.1.1.3); host or cells: Rhizopus arrhizus (natural producer)
Sequence (P61872 96-392): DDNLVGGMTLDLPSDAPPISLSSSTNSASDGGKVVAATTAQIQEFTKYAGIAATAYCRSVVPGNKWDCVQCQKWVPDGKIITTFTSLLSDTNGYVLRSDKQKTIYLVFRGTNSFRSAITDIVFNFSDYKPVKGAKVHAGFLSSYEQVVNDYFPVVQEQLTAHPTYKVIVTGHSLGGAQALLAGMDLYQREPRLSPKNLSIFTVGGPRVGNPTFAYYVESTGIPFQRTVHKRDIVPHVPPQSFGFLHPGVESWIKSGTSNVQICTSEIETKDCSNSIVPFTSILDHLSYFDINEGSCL
assay.procedure: Enzyme inhibition test, lipase (acidimetric comparison with control)
Format: biochemical
condition.set: substrate Olivenöl; enzyme 0,25 mg in 20 ml; read-out: Hemmwerte in % gegen Lipase
property.name: inhibition at 2500 ppm (%)

Reference set (3 entries):
CCN(CC)C(=O)Cc1ccc(OC)c(OC)c1 [Produkt B, 3,4-Dimethoxy-phenylacet-diethylamid] : 10
CCN(CC)C(=O)COc1ccc(C)c(C)c1 [Produkt G, 3,4-Dimethyl-phenoxyacet-diethylamid] : 12
CCN(CC)C(=O)COc1ccc(Cl)cc1 [Produkt F, p-Chlor-phenoxyacet-diethylamid] : 10

I: CCN(CC)C(=O)Cc1ccc(Cl)cc1 [Produkt A, p-Chlorphenylacet-diethylamid]
II: CCN(CC)C(=O)C(C)(C)Oc1ccc(Cl)cc1 [Produkt D]
III: CCN(CC)C(=O)CC(c1ccccc1)c1ccccc1 [Produkt C, 3,3-Diphenyl-propionsäure-diethylamid]
Order the records, beginning with the lowest inhibition at 2500 ppm and ending with the highest. Return value: ordered labels per request.
III, I, II
(III: 12%, I: 23%, II: 52%)
